# Tested on: Vero cells
# Procedure details: Simultaneous toxicity investigation (XTT), Vero cells
# Type: cell-based
# Parameters: unit not given here
# Test parameters: Table 2, Examples 83 to 124, 2d
Hi there, I'd appreciate the recorded TC50 (2d) for every entry that follows.

Which TC50 (2d) value is on record for CSc1ccccc1NC(=O)NC1N=C(c2ccccc2)c2ccccc2NC1=O (centres unmarked) [Example 123] ?
>100

Give the measured TC50 (2d) of COc1ccc(CCC(=O)NC2N=C(c3ccccc3)c3ccccc3NC2=O)cc1 (centres unmarked) [Example 98] .
>100

// TC50 (2d) lookup, key: CN(C)c1ccccc1C(=O)NC1N=C(c2ccccc2)c2ccccc2NC1=O (centres unmarked) [Example 113]
>100

Param item = O=C(NCc1ccc(Br)cc1)NC1N=C(c2ccccc2)c2ccccc2NC1=O (centres unmarked) [Example 118] ; retrieve measured TC50 (2d).
>100

Fill blank: measured TC50 (2d) of the compound O=C(Nc1ccc([N+](=O)[O-])cc1)NC1N=C(c2ccccc2)c2ccccc2NC1=O (centres unmarked) [Example 122] is ____.
60

Return reported TC50 (2d); argument: O=C(Nc1ccc(C(F)(F)F)cc1)NC1N=C(c2ccccc2)c2ccccc2NC1=O (centres unmarked) [Example 87]
50

Sample COc1ccc(C(=O)NC2N=C(c3ccccc3F)c3cc(Cl)ccc3NC2=O)cc1 (centres unmarked) [Example 83] — what was its TC50 (2d)?
>100

# query: TC50 (2d) of entry COc1ccc(C(=O)NC2N=C(c3ccc(C(F)(F)F)cc3)c3ccccc3NC2=O)cc1 (centres unmarked) [Example 103]
>100
